Taken from patent US4022791A.

System: mice; further: test concentration or dose not given here
Details: mouse, in vivo, ip
Entries and their measured Hot Plate 2 hr (percentage of mice showing analgesia) follow.
// print number alone

>>> reported_measurement("COc1ccc(Cl)c2c1CCC(CN1CCN(CCO)CC1)=C2")
20
>>> reported_measurement("COc1ccc(Cl)c2c1CCC(CN1CCC(O)CC1)=C2")
0
>>> reported_measurement("COc1ccc(Cl)c2c1CCC(CN1CCN(C)CC1)=C2")
0

Lookup: Consider the compound shown here: COc1ccc(Cl)c2c1CCC(CN(C)CCN1CCCC1)=C2 What is its recorded Hot Plate 2 hr (percentage of mice showing analgesia)?
Found: 0

Lookup: Next record, please: COc1ccc(Cl)c2c1CCC(CN1CCN(c3ccc(Cl)cc3)CC1)=C2
Found: 0

Lookup: Next record, please: COc1ccc(N2CCN(CC3=Cc4c(Cl)ccc(OC)c4CC3)CC2)cc1
Found: 0
